Molecular target: T1, BCMA-Fc recombinant protein (human, UniProt Q02223 1-54)
T1 construct: also called human BCMA protein; BCMA protein; not shown: Fc part
T1 sequence (looked up): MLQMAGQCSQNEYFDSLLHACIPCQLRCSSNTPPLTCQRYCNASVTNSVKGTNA
Test: SPR, Biacore 8K, CM5 chip; antibody captured by anti-human IgG (Fc), human BCMA protein as analyte (paragraph 147 describes the reverse format)
Assay Metric: pKd
Please note pKd is a logarithmic value: minus log10 of concentration in mol/L. Answer with that number alone.

Given the binder humanized single-domain antibody huD1 (Fc fusion, Humanized on DP-47 frameworks, original FR2 kept; not shown: fusion partner) QVQLVESGGGLVQPGGSLRLSCAASGRTSTTSVMGWFRQAPGKERRFVAAITRTDDRQNDGITYYADSVKGRFTISRDNSKNTLYLQMNSLRAEDTAVYYCAAHTSLVFTPDPRYWGQGTLVTVSS , what is its reported pKd?
8.72

Given the binder humanized single-domain antibody hu4811FGLF (Fc fusion, FR1, FR3 and FR4 replaced and T45A, E49G, R50L in FR2; Fusion partner inferred; not shown: fusion partner) QVQLVESGGGLVQPGGSLRLSCAASGHTPSNYAMGWFRQAPGKGLEFVAAITWSAVTRDDAIPYYADSVKGRFTISRDNSKNTLYLQMNSLRAEDTAVYYCAVDASLVMTPTPRYWGQGTLVTVSS , what is its reported pKd?
7.99

Given the binder single-domain antibody D1 (Fc fusion, not shown: human IgG1 Fc, ligated in series to the VHH (vector Lenti-hIgG1-Fc2)) QVQLVESGGGLVQAGGSLRLSCVASGRTSTTSVMGWFRQAPGKERRFVAAITRTDDRQNDGITYYGESVKGRFTISRDNDKNTVYLQMNSLKPEDTAVYYCAAHTSLVFTPDPRYWGQGTPVTVPS , what is its reported pKd?
9.61

Given the binder single-domain antibody 48-11 (Fc fusion, Supernatant was used in flow cytometry, Protein A purified material in Biacore; not shown: human IgG1 Fc, ligated in series to the VHH (vector Lenti-hIgG1-Fc2)) QVQLVESGGGLVQAGGSLRLSCAASGHTPSNYAMGWFRQTPGKEREFVAAITWSAVTRDDAIPYYRTSVKGRFTISRDNAKNTVYLQMNSLKPEDTAVYYCAVDASLVMTPTPRYWGQGTQVTVSS , what is its reported pKd?
10.42

Given the binder humanized single-domain antibody huD1FGLF (Fc fusion, FR1, FR3 and FR4 replaced and FR2 mutated; Fusion partner inferred; also called huDIFGLF; not shown: fusion partner) QVQLVESGGGLVQPGGSLRLSCAASGRTSTTSVMGWFRQAPGKGLEFVAAITRTDDRQNDGITYYADSVKGRFTISRDNSKNTLYLQMNSLRAEDTAVYYCAAHTSLVFTPDPRYWGQGTLVTVSS , what is its reported pKd?
8.03

Given the binder humanized single-domain antibody hu4811 (Fc fusion, Humanized on DP-47 frameworks, original FR2 kept; Fusion partner inferred; not shown: fusion partner) QVQLVESGGGLVQPGGSLRLSCAASGHTPSNYAMGWFRQTPGKEREFVAAITWSAVTRDDAIPYYADSVKGRFTISRDNSKNTLYLQMNSLRAEDTAVYYCAVDASLVMTPTPRYWGQGTLVTVSS , what is its reported pKd?
8.01

Each recorded value in this set is attributed to patent US20250171550A1.
